Tested on: Human immunodeficiency virus 1
EXPERIMENTAL_DETAILS: Binding affinity to HIV-1 29-mer TAR RNA assessed as increase in melting temperature at 10 uM by fluorescence quenching assay
Calls of active or inactive are those of the source. The calls are words filed in the database; no cut-off is given here.
Assign a class; possible classes are true (active), false (inactive)

Observe how each entry below is paired with its result.
MOLECULE | LABEL_VALUE
C[C@H](NC(=O)C(N)CCCN)C(=O)Nc1ccc2c(c1)C(=O)c1ccc(NC(=O)[C@H](C)NC(=O)C(N)CCCN)cc1C2=O (some centres not stated) | true
NC1(C(=O)NCC(=O)Nc2ccc3c(c2)C(=O)c2ccc(NC(=O)CNC(=O)C4(N)CCNCC4)cc2C3=O)CCNCC1 | true
NCCCC(N)C(=O)NCC(=O)Nc1ccc2c(c1)C(=O)c1ccc(NC(=O)CNC(=O)C(N)CCCN)cc1C2=O (configuration not stated) | true
C[C@H](NC(=O)C(N)CN)C(=O)Nc1ccc2c(c1)C(=O)c1ccc(NC(=O)[C@H](C)NC(=O)C(N)CN)cc1C2=O (some centres not stated) | false
C[C@H](NC(=O)C(N)CCN)C(=O)Nc1ccc2c(c1)C(=O)c1ccc(NC(=O)[C@H](C)NC(=O)C(N)CCN)cc1C2=O (some centres not stated) | true

In: Which result was noted for this molecule in the test: NCC(N)C(=O)NCC(=O)Nc1ccc2c(c1)C(=O)c1ccc(NC(=O)CNC(=O)C(N)CN)cc1C2=O (configuration not stated)
Out: true

In: Answer briefly: the call reported for `NC[C@H]1CC[C@H](C(=O)NCC(=O)Nc2ccc3c(c2)C(=O)c2ccc(NC(=O)CNC(=O)[C@H]4CC[C@H](CN)CC4)cc2C3=O)CC1` in this assay.
Out: false
